# protocolSummary: Plasma PK of zanubrutinib alone and with omeprazole 20 mg
# Type: in vivo
# measurementContext: male, human, oral, 160 mg, AUC0‐t, zanubrutinib 160 mg b.i.d. only (Day 13), n = 17, geometric mean (CV%)
observationType: AUC (ng·h/mL)
Report the value in ng·h/mL with no unit label.

[in] Fill blank: measured AUC of the molecule C=CC(=O)N1CCC([C@@H]2CCNc3c(C(N)=O)c(-c4ccc(Oc5ccccc5)cc4)nn32)CC1 [Zanubrutinib, zanubrutinib] is ____.
[out] 1030

----------
Reported AUC values follow for various molecules
# Format: in vivo, human
# measurementContext: male, human, plasma, oral, AUC0‐t, probe drugs + zanubrutinib 160 mg b.i.d.; geometric mean (CV%)
Report the value in ng·h/mL with no unit label.

Reference set (3 entries):
Cc1ncc2n1-c1ccc(Cl)cc1C(c1ccccc1F)=NC2    14.3
CC(C)c1nc(N(C)S(C)(=O)=O)nc(-c2ccc(F)cc2)c1/C=C/[C@@H](O)C[C@@H](O)CC(=O)O    32.9
C[C@H]1O[C@@H](O[C@H]2[C@@H](O)C[C@H](O[C@H]3[C@@H](O)C[C@H](O[C@H]4CC[C@@]5(C)[C@H](CC[C@@H]6[C@@H]5C[C@@H](O)[C@]5(C)[C@@H](C7=CC(=O)OC7)CC[C@]65O)C4)O[C@@H]3C)O[C@@H]2C)C[C@H](O)[C@@H]1O    7.28

Please examine the following record next.
[in] Fill blank: measured AUC of the molecule COc1ccc2[nH]c([S+]([O-])Cc3ncc(C)c(OC)c3C)nc2c1 (stereo not shown) is ____.
[out] 282

----------
Reported Cmax values follow for various compounds
# Type: in vivo, human
# measurementContext: male, human, plasma, oral, Cmax, probe drugs + zanubrutinib 160 mg b.i.d.; geometric mean (CV%)
Report the value in ng/mL with no unit label.

Reference set (3 entries):
CC(C)c1nc(N(C)S(C)(=O)=O)nc(-c2ccc(F)cc2)c1/C=C/[C@@H](O)C[C@@H](O)CC(=O)O    3.75
Cc1ncc2n1-c1ccc(Cl)cc1C(c1ccccc1F)=NC2    7.12
C[C@H]1O[C@@H](O[C@H]2[C@@H](O)C[C@H](O[C@H]3[C@@H](O)C[C@H](O[C@H]4CC[C@@]5(C)[C@H](CC[C@@H]6[C@@H]5C[C@@H](O)[C@]5(C)[C@@H](C7=CC(=O)OC7)CC[C@]65O)C4)O[C@@H]3C)O[C@@H]2C)C[C@H](O)[C@@H]1O    1.56

Please examine the following record next.
[in] Fill blank: measured Cmax of the compound COc1ccc2[nH]c([S+]([O-])Cc3ncc(C)c(OC)c3C)nc2c1 (stereo not shown) is ____.
[out] 182

----------
# protocolSummary: Plasma PK of zanubrutinib alone and with omeprazole 20 mg
# Format: in vivo
# measurementContext: male, human, oral, 20 mg
observationType: Tmax (h)
Report the value in h with no unit label.

[in] Fill blank: measured Tmax of the compound C=CC(=O)N1CCC([C@@H]2CCNc3c(C(N)=O)c(-c4ccc(Oc5ccccc5)cc4)nn32)CC1 [Zanubrutinib, zanubrutinib] is ____.
[out] 2

----------
# protocolSummary: Plasma PK of zanubrutinib alone and with omeprazole 20 mg
# Format: in vivo
# measurementContext: male, human, oral, 20 mg, AUC0‐t, with omeprazole 20 mg (Day 18), n = 17, geometric mean (CV%)
observationType: AUC

[in] Fill blank: measured AUC of the compound C=CC(=O)N1CCC([C@@H]2CCNc3c(C(N)=O)c(-c4ccc(Oc5ccccc5)cc4)nn32)CC1 [Zanubrutinib, zanubrutinib] is ____.
[out] 1070 ng·h/mL
